Where a name gives a salt, the structure may show the parent alone.
Documented melting point across a set of compounds

Here are 6 compounds together with their reported answers.
Cc1ccc(C)c(C2SC(NC(=O)C3CC4CCC3CC4)=C(C#N)C2(Cl)C(F)(F)F)c1 (stereo not drawn); 242 to 244 °C
Cc1ccc(C)c(-c2sc(NC(=O)[C@H]3C[C@H]4CC[C@@H]3C4)c(C#N)c2C(F)(F)F)c1; 230 °C
N#Cc1c(NC(=O)C2CCCCC2)sc(-c2ccccc2)c1[N+](=O)[O-]; 213 to 214 °C
Cc1ccc(C)c(-c2cc(C#N)c(NC(=O)[C@@H]3C[C@@H]4CC[C@H]3C4)s2)c1; 168 to 169 °C
Cc1ccc(C)c(-c2sc(NC(=O)[C@@H]3C[C@H]4C=C[C@@H]3C4)c(C#N)c2C(F)(F)F)c1; 226 to 227 °C
N#Cc1c(NC(=O)C2CCCCC2)sc(-c2ccccc2)c1Cl; 175 to 180 °C

Input: So what's the measured melting point for this one? Cc1ccc(C)c(-c2sc(NC(=O)[C@@H]3C[C@@H]4CC[C@H]3C4)c(C#N)c2Cl)c1
Output: 117 to 119 °C

Input: So what's the measured melting point for this one? Cc1ccc(C)c(-c2sc(NC(=O)[C@H]3C[C@H]4C=C[C@@H]3C4)c(C#N)c2C(F)(F)F)c1
Output: 209 to 211 °C

Input: So what's the measured melting point for this one? Cc1ccc(N(C)CCCc2sc(NC(=O)C3CC4CCC3CC4)c(C#N)c2C)cc1 (stereo not drawn) (as salt: hydrochloride)
Output: 133 to 140 °C

Input: So what's the measured melting point for this one? CCCc1sc(NC(=O)C2CCCCC2)c(C#N)c1OC
Output: 146 to 147 °C

Input: So what's the measured melting point for this one? Cc1ccc(C)c(-c2sc(NC(=O)[C@H]3C[C@@H]4CC[C@H]3C4)c(C#N)c2C(F)(F)F)c1
Output: 242 °C

Input: So what's the measured melting point for this one? N#Cc1c(NC(=O)C2CCCCC2)sc(-c2ccccc2)c1Br
Output: 167 to 168 °C
